# MIC per entry
- System: Bacillus subtilis CIP 5262
- ASSAY_REMARKS: MIC microdilution (Table I-1)
- Type: cell-based
- PARTICULARS: CIP5262, read after 18 hours, read-out: MIC

# example entries with known answers
COMPOUND	MIC
O=C(C(=O)N1CCOCC1c1c[nH]c2ccccc12)c1c[nH]c2ccccc12 (stereo not drawn)	> 128 µg/mL
CC(C)(C)OC(=O)NCC(NC(=O)C(=O)c1c[nH]c2ccccc12)c1c[nH]c2ccccc12 (stereo not drawn)	> 128 µg/mL
CC(C)(C)OC(=O)N1CCN(C(=O)C(=O)c2c[nH]c3ccc(Br)cc23)C(c2c[nH]c3ccc(Br)cc23)C1 (stereo not drawn)	> 128 µg/mL
O=C(C(=O)N1CCCCC1c1c[nH]c2ccccc12)c1c[nH]c2ccccc12 (stereo not drawn)	> 128 µg/mL

The reported value for CC(C)(C)OC(=O)N1CCN(C(=O)C(=O)c2c[nH]c3ccccc23)C(c2c[nH]c3ccccc23)C1 (stereo not drawn) in terms of MIC is > 128 µg/mL

Measured MIC, CC(C)(C)OC(=O)NCC(NC(=O)C(=O)c1c[nH]c2cc(Br)ccc12)c1c[nH]c2ccccc12 (stereo not drawn) : 128 µg/mL

Lookup result for CC(NC(=O)C(=O)c1c[nH]c2ccc(Br)cc12)c1c[nH]c2ccc(Br)cc12 (stereo not drawn) ; measured MIC: 64 µg/mL

// sample CC(C)(C)OC(=O)NCC(NC(=O)C(F)(F)F)c1c[nH]c2ccc(Br)cc12 (stereo not drawn) , its MIC was 128 µg/mL

The reported MIC of the compound O=C(C(=O)N1CCCCC1c1c[nH]c2ccc(Br)cc12)c1c[nH]c2ccc(Br)cc12 (stereo not drawn) was > 128 µg/mL

###

Below are MIC values measured for S. pneumoniae ATCC 49619.

Solved entries:
COMPOUND	MIC
CC(C)(C)OC(=O)N1CCN(C(=O)C(=O)c2c[nH]c3ccccc23)C(c2c[nH]c3ccccc23)C1 (stereo not drawn)	> 128 µg/mL
O=C(C(=O)N1CCCCC1c1c[nH]c2ccccc12)c1c[nH]c2ccccc12 (stereo not drawn)	> 128 µg/mL
CC(C)(C)OC(=O)NCC(NC(=O)C(=O)c1c[nH]c2ccccc12)c1c[nH]c2ccccc12 (stereo not drawn)	> 128 µg/mL

I looked up CC(NC(=O)C(=O)c1c[nH]c2ccc(Br)cc12)c1c[nH]c2ccc(Br)cc12 (stereo not drawn) and its MIC for S. pneumoniae ATCC 49619 was 32 µg/mL

The value of MIC recorded for CC(C)(C)OC(=O)N1CCN(C(=O)C(=O)c2c[nH]c3ccc(Br)cc23)C(c2c[nH]c3ccc(Br)cc23)C1 (stereo not drawn) when tested on S. pneumoniae ATCC 49619 reads > 128 µg/mL

Bench note, S. pneumoniae ATCC 49619: entry CC(C)(C)OC(=O)NCC(NC(=O)C(F)(F)F)c1c[nH]c2ccc(Br)cc12 (stereo not drawn) , its MIC = 128 µg/mL

Let me check: O=C(C(=O)N1CCOCC1c1c[nH]c2ccccc12)c1c[nH]c2ccccc12 (stereo not drawn) , system S. pneumoniae ATCC 49619, measured MIC is > 128 µg/mL

Simply: CC(C)(C)OC(=O)NCC(NC(=O)C(=O)c1c[nH]c2cc(Br)ccc12)c1c[nH]c2ccccc12 (stereo not drawn) , S. pneumoniae ATCC 49619, MIC = > 128 µg/mL

The value of MIC recorded for O=C(C(=O)N1CCCCC1c1c[nH]c2ccc(Br)cc12)c1c[nH]c2ccc(Br)cc12 (stereo not drawn) when tested on S. pneumoniae ATCC 49619 reads > 128 µg/mL

###

- Test system: MRC5 (human lung fibroblast)
- ASSAY_REMARKS: In vitro cytotoxicity
- Type: cell-based
- PARTICULARS: MRC5, 10^−5 M, read-out: % of cellular growth inhibition
Here the recorded inhibition at 10 µM is given for each entry.
Provide the reading as a plain figure in %.

MOLECULE	inhibition at 10 µM [%]
O=C(C(=O)N1CCCCC1c1c[nH]c2ccc(Br)cc12)c1c[nH]c2ccc(Br)cc12 (stereo not shown) [Compound 6d]	0
CC(C)(C)OC(=O)N1CCN(C(=O)C(=O)c2c[nH]c3ccccc23)C(c2c[nH]c3ccccc23)C1 (stereo not shown) [Compound 6c]	6
CC(C)(C)OC(=O)NCC(NC(=O)C(=O)c1c[nH]c2ccc(Br)cc12)c1c[nH]c2ccc(Br)cc12 (stereo not shown) [Compound 4]	51

The measured inhibition at 10 µM associated with O=C(C(=O)N1CCCCC1c1c[nH]c2ccccc12)c1c[nH]c2ccccc12 (stereo not shown) [Compound 6a] reads 28

From: patent US9321722B2
